System: NFAT-luc2/PD1 Jurkat cells
Assay: In vitro cytotoxicity on NFAT-luc2/PD1 Jurkat cells (CellTiter-Glo)
Type: cell-based
Conditions: Homo sapiens, Jurkat, 72 hours
pIC50 values by entry
Lab note — pIC50 values are minus log10 of concentrations in M.

1. COc1nc(-c2cccc(-c3cccc(NC(=O)c4nc5c(n4C)CCN(C)C5)c3Cl)c2C)ccc1CNC1COC1
5.06
2. COc1cc(C(=O)Nc2cccc(-c3cccc(NC(=O)c4nc5c(n4C)CCN(C)C5)c3Cl)c2C)ncc1CN[C@@H]1CCOC[C@@H]1F
5.53
3. COc1nc(-c2cccc(-c3cccc(NC(=O)c4nc5c(n4C)CCN(C)C5)c3Cl)c2Cl)cnc1CN1CC(F)C1
5.27
4. COc1nc(-c2cccc(-c3cccc(NC(=O)c4nc5c(n4C)CCN(C)C5)c3Cl)c2Cl)cnc1CN1CC(NC(C)=O)C1
5.36

Then there is this compound:
Challenge: Request the reported pIC50 associated with COc1nc(-c2cccc(-c3cccc(NC(=O)c4nc5c(n4C)CCN(C)C5)c3Cl)c2Cl)ccc1CNC1COC1
Response given: 5.12

* * *

Molecular target: human PD-L1 protein (Homo sapiens)
Construct: purchased Acro Biosystems PD1-H5229
Sequence (Q9NZQ7 19-238 limits assumed): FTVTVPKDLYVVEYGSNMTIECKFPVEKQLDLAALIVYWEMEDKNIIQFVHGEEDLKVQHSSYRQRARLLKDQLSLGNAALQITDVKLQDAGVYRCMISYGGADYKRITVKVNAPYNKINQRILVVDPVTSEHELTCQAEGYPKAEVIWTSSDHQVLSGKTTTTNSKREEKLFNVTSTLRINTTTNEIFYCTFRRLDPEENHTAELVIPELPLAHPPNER
Assay: Thermal shift: melting temperature of PD-L1 protein
Type: binding
Conditions: compound 10 μM, PD-L1 protein 2 μM, Tm minus DMSO vehicle control; read-out: ΔTm (° C.)
Property Measured: ΔTm at 10 µM (°C)
Respond with the bare value in °C.

For orientation, consider the following solved cases.
1. COc1nc(-c2cccc(-c3cccc(NC(=O)c4nc5c(n4C)CCN(C)C5)c3Cl)c2Cl)ccc1CN1CCN(C(=O)CC#N)CC1
12
2. COc1nc(-c2cccc(-c3cccc(NC(=O)c4nc5c(n4C)CCN(C)C5)c3Cl)c2Cl)ncc1CNCCO
12

Challenge: Request the reported ΔTm at 10 µM associated with COc1cc(C(=O)Nc2cccc(-c3cccc(NC(=O)c4nc5c(n4C)CCN(C)C5)c3Cl)c2C)ncc1CNc1cc(C)ncn1
Response given: 10.3

Challenge: Request the reported ΔTm at 10 µM associated with COc1nc(-c2cccc(-c3cccc(NC(=O)c4nc5c(n4C)CCN(C)C5)c3Cl)c2Cl)ccc1CN1CC2(C1)CN(S(C)(=O)=O)C2
Response given: 14

Challenge: Request the reported ΔTm at 10 µM associated with COc1nc(-c2cccc(-c3cccc(NC(=O)c4nc5c(n4C)CCN(C)C5)c3Cl)c2C)ccc1CNC1COC1
Response given: 12

Challenge: Request the reported ΔTm at 10 µM associated with COc1nc(-c2cccc(-c3cccc(NC(=O)c4nc5c(n4C)CCN(C)C5)c3Cl)c2Cl)ccc1CN1C[C@@H]2C[C@H]1CN2C(C)=O
Response given: 13.3

* * *

Biological target: PD-L1 protein on the surface of MC38-hPDL1 tumor cells (Homo sapiens, UniProt Q9NZQ7)
Construct: expressed in transfected cells; host or cells: MC38-hPDL1 (mouse colon cancer cells)
Sequence (Q9NZQ7 19-290): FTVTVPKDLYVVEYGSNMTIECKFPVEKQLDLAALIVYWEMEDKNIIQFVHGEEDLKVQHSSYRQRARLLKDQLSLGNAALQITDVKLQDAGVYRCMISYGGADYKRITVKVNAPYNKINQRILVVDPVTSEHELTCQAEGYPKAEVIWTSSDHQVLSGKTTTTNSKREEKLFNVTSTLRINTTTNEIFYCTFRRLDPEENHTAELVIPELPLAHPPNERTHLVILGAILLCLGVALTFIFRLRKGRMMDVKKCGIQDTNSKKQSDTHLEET
Test: Induction of endocytosis of PD-L1 on the surface of tumor cells (flow cytometry)
Format: cell-based
Conditions: MC38-hPDL1 cells, 16 hours incubation; read-out: MC38 maximum endocytosis rate
Emax values by entry
Respond with the bare value in %.

For orientation, consider the following solved cases.
1. COc1nc(-c2cccc(-c3cccc(NC(=O)c4nc5c(n4C)CCN(C)C5)c3Cl)c2Cl)ccc1CN1CC(F)C1 [Embodiment 120]
95
2. COc1nc(-c2cccc(-c3cccc(NC(=O)c4nc5c(n4C)CCN(C)C5)c3Cl)c2Cl)ccc1CN1CCN(C(=O)C(F)(F)F)CC1 [Embodiment 202]
89

Then there is this molecule:
Challenge: Request the reported Emax associated with COc1nc(-c2cccc(-c3cccc(NC(=O)c4nc5c(n4C)CCN(C)C5)c3Cl)c2Cl)ccc1CN1CC[C@H]1C(=O)O [Embodiment 171]
Response given: 93
